Hello, the source for this data is PubChem BioAssay AID1259407, in case you need it.

System: CCRIS mutagenicity, Ames/micronucleus/aberration tests
PROTOCOL DETAILS: CCRIS mutagenicity studies
TEST PARAMETERS: Test System: AMES SALMONELLA TYPHIMURIUM; Strain/Indicator: TA100; Metabolic Activation: RAT, LIVER, S-9, KANECHLOR 500; Method: PREINCUBATION
Activity calls are given as the source filed them. How the calls were made is not given here.
// allowed return values: active, inactive

Field: example entries. Status: answers known.
Prompt line: Per the records of this test, what outcome belongs to O=Cc1ccccc1[N+](=O)[O-] ?
Response line: inactive

Prompt line: Per the records of this test, what outcome belongs to Cc1cccc(C)c1[N+](=O)[O-] ?
Response line: inactive

Prompt line: Per the records of this test, what outcome belongs to CC(=O)Nc1cccc2cccnc12 ?
Response line: active

Prompt line: Per the records of this test, what outcome belongs to O=C(O)c1cc([N+](=O)[O-])ccc1[N+](=O)[O-] ?
Response line: inactive

Prompt line: Per the records of this test, what outcome belongs to Cc1ccc(N)cc1[N+](=O)[O-] ?
Response line: active

# ---- query compound ----
Prompt line: Per the records of this test, what outcome belongs to Nc1c(Br)cc([N+](=O)[O-])cc1[N+](=O)[O-] ?
Response line: active
